B1: library; a variant is named by its letters at N, in order (parent)
chain: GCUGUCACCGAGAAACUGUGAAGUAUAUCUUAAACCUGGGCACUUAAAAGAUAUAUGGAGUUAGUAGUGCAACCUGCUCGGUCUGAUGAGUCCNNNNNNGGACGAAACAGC

variants of: B1; assay: normalized RNA/DNA level with ligand (relative to sTRSVctl = 100) (log10 (% of sTRSVctl)); HEK293T; ligand: cyclic di-GMP (c-di-GMP-II aptamer); ligand concentration (+) RNA-Seq: 1 mM; higher = less ribozyme self-cleavage, higher mRNA level; conditions: reporter: mCherry (pCS4076), ligand present: yes
quantityKind: normalized RNA/DNA level with ligand (log10)
Give bare numbers.

Record normalized RNA/DNA level with ligand (log10) per entry; entries follow.
1. AUAUGC
2. GUGAAU
3. ACAUUC
4. AGUAGG
5. AUGUUC
6. ACGGGG
7. UGGACA

Found:
[1.83, 1.75, 1.81, 1.75, 1.84, 1.82, 1.83]
